- Experimental Target: horseradish peroxidase (HRP) tagged delF508-CFTR (Homo sapiens, UniProt P13569, DEL508-508)
- Construct: expressed in transfected cells
- Sequence (P13569 with tags, fused parts or gaps DEL508-508): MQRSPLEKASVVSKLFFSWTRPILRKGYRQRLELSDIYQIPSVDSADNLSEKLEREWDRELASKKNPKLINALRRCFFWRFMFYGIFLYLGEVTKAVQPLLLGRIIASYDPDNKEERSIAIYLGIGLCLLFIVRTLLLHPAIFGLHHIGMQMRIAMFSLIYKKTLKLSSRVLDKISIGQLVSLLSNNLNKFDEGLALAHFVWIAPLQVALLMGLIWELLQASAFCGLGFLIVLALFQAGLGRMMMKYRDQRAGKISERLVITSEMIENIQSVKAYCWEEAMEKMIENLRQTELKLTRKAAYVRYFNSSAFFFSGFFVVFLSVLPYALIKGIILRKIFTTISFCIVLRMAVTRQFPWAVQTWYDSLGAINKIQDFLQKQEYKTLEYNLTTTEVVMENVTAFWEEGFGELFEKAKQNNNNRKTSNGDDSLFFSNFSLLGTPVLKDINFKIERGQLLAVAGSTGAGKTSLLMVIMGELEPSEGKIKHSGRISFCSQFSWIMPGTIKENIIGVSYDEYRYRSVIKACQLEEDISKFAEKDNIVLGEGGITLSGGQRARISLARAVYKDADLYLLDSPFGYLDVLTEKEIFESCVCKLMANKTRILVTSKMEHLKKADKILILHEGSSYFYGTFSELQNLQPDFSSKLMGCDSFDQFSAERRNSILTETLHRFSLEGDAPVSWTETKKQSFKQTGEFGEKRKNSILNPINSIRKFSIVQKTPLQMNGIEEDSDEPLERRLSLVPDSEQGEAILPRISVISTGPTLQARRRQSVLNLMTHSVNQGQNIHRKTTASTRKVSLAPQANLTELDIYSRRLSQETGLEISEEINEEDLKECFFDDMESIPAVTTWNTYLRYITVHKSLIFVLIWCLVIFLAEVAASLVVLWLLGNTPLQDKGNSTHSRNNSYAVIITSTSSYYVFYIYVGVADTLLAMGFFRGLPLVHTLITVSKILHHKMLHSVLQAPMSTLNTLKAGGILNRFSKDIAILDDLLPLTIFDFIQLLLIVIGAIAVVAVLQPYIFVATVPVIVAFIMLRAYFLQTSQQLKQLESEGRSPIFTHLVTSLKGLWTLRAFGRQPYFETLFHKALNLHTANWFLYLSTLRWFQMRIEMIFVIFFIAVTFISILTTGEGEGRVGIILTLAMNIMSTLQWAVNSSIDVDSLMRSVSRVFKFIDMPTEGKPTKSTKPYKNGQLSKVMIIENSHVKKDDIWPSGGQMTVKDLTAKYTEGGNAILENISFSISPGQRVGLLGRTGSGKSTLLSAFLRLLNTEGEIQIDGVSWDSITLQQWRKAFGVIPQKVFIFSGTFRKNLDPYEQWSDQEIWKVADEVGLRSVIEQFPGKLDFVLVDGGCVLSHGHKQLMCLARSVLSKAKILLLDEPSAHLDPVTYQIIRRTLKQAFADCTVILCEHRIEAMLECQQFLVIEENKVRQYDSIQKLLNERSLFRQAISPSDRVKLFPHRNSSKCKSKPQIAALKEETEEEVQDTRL
- Test Method Notes: Measurement of delF508-CFTR-HRP surface expression in CFBE41o- cells;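 for DelF508-CFTR-HRP Amax %: percent efficacy relative to reference corrector lumacaftor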
- Type: cell-based
- Run Conditions: delF508-CFTR-HRP surface expression, CFBE41o- cells; read-out: DelF508-CFTR-HRP Amax %
Where a name gives a salt, the structure may show the parent alone.
Quantity Kind: Emax (%)
Use % as the unit, but write only the number.

Please review the entries below; each comes with its answer.
{"Molecule": "Cc1ccccc1-c1nc(NS(=O)(=O)c2cccc(N3CCNC[C@@H]3C(=O)O)n2)ccc1C(F)(F)F [Example 353]", "Recorded Number": 118}
{"Molecule": "Cc1cccc(C)c1-c1ccc(F)c(NS(=O)(=O)c2cccc(N)n2)n1 [Example 93]", "Recorded Number": 23.5}
{"Molecule": "CC1(C(=O)O)CCN(c2cccc(S(=O)(=O)Nc3ccc(Cl)c(-c4ccccc4Cl)n3)n2)CC1 [Example 239]", "Recorded Number": 280}

Q) // lookup Emax for Cc1cccc(C)c1-c1nc(NS(=O)(=O)c2cccc(N3CCN(C(=O)OC(C)(C)C)CC3)n2)ccc1Cl [Example 162]
A) 662

Q) For Cc1cccc(C)c1-c1ccc(Cl)c(NS(=O)(=O)c2cccc(N)n2)n1 [Example 96] then?
A) 10

Q) # iterate: Nc1cccc(S(=O)(=O)Nc2ccc(Cl)c(-c3c(F)cccc3F)n2)n1 [Example 80]
A) 137

Q) Can you check Cc1ccccc1-c1nc(NS(=O)(=O)c2cccc(N)n2)ccc1C1CC1 [Example 66] next?
A) 215

Q) What do you get for COC(=O)C1(NC(=O)OC(C)(C)C)CCN(c2cccc(S(=O)(=O)Nc3ccc(Cl)c(-c4c(C)cccc4C)n3)n2)CC1 [Example 267] ?
A) 887

Q) Now try O=S(=O)(Nc1ccc(Cl)c(-c2ccccc2Cl)n1)c1cccc(N2CC(O)C2)n1 [Example 227] .
A) 403

Q) Consider next the molecule Cc1ccccc1-c1nc(NS(=O)(=O)c2cccc(N3CCC(C)(C(=O)O)C3)n2)ccc1C(F)(F)F (stereo not drawn) [Example 336] in the same way.
A) 266

Q) Subsequent entry: Cc1c(F)cccc1-c1nc(NS(=O)(=O)c2cccc(N3CC(O)C3)n2)ccc1Cl [Example 232]
A) 349

Q) Next up: Cc1cccc(C)c1-c1nc(NS(=O)(=O)c2cccc(N3CCn4cc(C(F)(F)F)nc4C3)n2)ccc1Cl [Example 199]
A) 700

Q) Consider next the molecule Cc1cccc(C)c1-c1nc(NS(=O)(=O)c2cccc(N3CCN[C@@H](CO)C3)n2)ccc1C(F)(F)F [Example 172, Hydrochloride] in the same way.
A) 684

Q) Can you check Cc1c(F)cccc1-c1nc(NS(=O)(=O)c2cccc(N3CCN(C(C)(C)C)CC3)n2)ccc1Cl [Example 140] next?
A) 395

Q) How about this molecule: O=S(=O)(Nc1ccc(Cl)c(-c2ccc(F)cc2Cl)n1)c1cccc(N2CC(O)C2)n1 [Example 214]
A) 256

* * *

- Experimental Target: horseradish peroxidase (HRP) tagged delF508-CFTR (Homo sapiens, UniProt P13569, DEL508-508)
- Construct: expressed in transfected cells
- Test Method Notes: Measurement of delF508-CFTR-HRP surface expression in CFBE41o- cells
- Format: cell-based
- Run Conditions: delF508-CFTR-HRP surface expression, CFBE41o- cells; read-out: DelF508-CFTR-HRP EC50
Counter-ions that a name gives are not always drawn.
Entries and their measured EC50 follow.
The reply should be a number in nM, with the unit left off.

{"Compound": "Cc1ccc(F)cc1-c1nc(NS(=O)(=O)c2cccc(N[C@@H]3COC[C@H]3O)n2)ccc1Cl", "Recorded Number": 2320}
{"Compound": "Cc1ccccc1-c1nc(NS(=O)(=O)c2cccc(N3CCN(C)CC3)n2)ccc1C(F)(F)F", "Recorded Number": 2830}
{"Compound": "Cc1cc(F)cc(C)c1-c1nc(NS(=O)(=O)c2cccc(N)n2)ccc1Cl", "Recorded Number": 1700}
{"Compound": "Cc1cccc(C)c1-c1nc(NS(=O)(=O)c2ccc(Br)c(N)n2)ccc1Cl", "Recorded Number": 1980}
{"Compound": "Cc1ccccc1-c1nc(NS(=O)(=O)c2cccc(N3CCN(CC(F)(F)F)CC3)n2)ccc1C(F)(F)F", "Recorded Number": 1190}
{"Compound": "Cc1ccccc1-c1nc(NS(=O)(=O)c2cccc(N3CC(O)(C(F)(F)F)C3)n2)ccc1C(F)(F)F", "Recorded Number": 1730}
{"Compound": "COc1ccc(Cl)c(-c2nc(NS(=O)(=O)c3cccc(N4CC(O)C4)n3)ccc2Cl)c1", "Recorded Number": 2990}
{"Compound": "CC1(C(=O)O)CCN(c2cccc(S(=O)(=O)Nc3ccc(C(F)(F)F)c(-c4ccccc4C4CC4)n3)n2)CC1", "Recorded Number": 1460}

Q) Quick check: EC50 of O=S(=O)(Nc1ccc(C(F)(F)F)c(-c2ccccc2C(F)(F)F)n1)c1ccnc(N2CC(O)C2)c1 ?
A) 2400

Q) // repeat for CC1(C(=O)O)CCN(c2cccc(S(=O)(=O)Nc3ccc(Cl)c(-c4ccc(F)cc4Cl)n3)n2)CC1 and report
A) 2600

Q) Here is the next compound: Cc1ccc(F)cc1-c1nc(NS(=O)(=O)c2cccc(N3C[C@@H]4CC[C@H]3CN4)n2)ccc1C(F)(F)F [Example 200, Hydrochloride]
A) 3170

Q) Same question for Nc1cccc(S(=O)(=O)Nc2ccc(Cl)c(-c3ccccc3C(F)F)n2)n1 please.
A) 1540

Q) Also need CN[C@H]1CCN(c2cccc(S(=O)(=O)Nc3ccc(C(F)(F)F)c(-c4ccccc4C)n3)n2)C1 [Example 122, Hydrochloride] , thanks.
A) 2690

Q) What do you have for Cc1ccccc1-c1nc(NS(=O)(=O)c2cccc(N3CCN(C(=O)OC(C)(C)C)[C@H](C(=O)O)C3)n2)ccc1C(F)(F)F ?
A) 2470

Q) Another compound: Cc1ccc(F)cc1-c1nc(NS(=O)(=O)c2ccnc(N3CC(C)(O)C3)c2)ccc1C(F)(F)F
A) 2220

* * *

Below, each entry is listed alongside its reported pEC50.
- Experimental Target: horseradish peroxidase (HRP) tagged delF508-CFTR (Homo sapiens, UniProt P13569, DEL508-508)
- Construct: expressed in transfected cells
- Test Method Notes: Measurement of delF508-CFTR-HRP surface expression in CFBE41o- cells
- Format: cell-based
- Run Conditions: delF508-CFTR-HRP surface expression, CFBE41o- cells; read-out: DelF508-CFTR-HRP EC50
- Protocol: Measurement of delF508-CFTR-HRP Surface Expression in CFBE41o-Cells This assay quantifies the cell surface expressions of the mutant CFTR channel using an extracellular HRP tag. […] The median activity for the lowest concentration of the compounds on each assay plate was calculated and this value was used to normalize the signal for each well on the respective plate. […] The median value was determined and used to calculate compound activities as described below. […]
Where a name gives a salt, the structure may show the parent alone.
By convention, pEC50 is the negative base-10 log of a molar concentration.

Worked examples follow.
{"Compound": "Cc1ccccc1-c1nc(NS(=O)(=O)c2cccc(N3CCN(C(=O)CN)CC3)n2)ccc1C(F)(F)F [Example 191, hydrochloride]", "Recorded Number": 5.41}
{"Compound": "Cc1cccc(C)c1-c1nc(NS(=O)(=O)c2cccc(N3CCN[C@@H](CO)C3)n2)ccc1C(F)(F)F [Example 172, Hydrochloride]", "Recorded Number": 5.60}
{"Compound": "Cc1cccc(C)c1-c1nc(NS(=O)(=O)c2ccnc(N)c2)ccc1C(F)(F)F", "Recorded Number": 5.97}
{"Compound": "Cc1ccc(C#N)cc1-c1nc(NS(=O)(=O)c2cccc(N)n2)ccc1Cl", "Recorded Number": 5.81}
{"Compound": "Cc1ccc(F)cc1-c1nc(NS(=O)(=O)c2cccc(N3CC(O)C3)n2)ccc1Cl", "Recorded Number": 5.71}
{"Compound": "O=S(=O)(Nc1ccc(Cl)c(-c2cccc(F)c2Cl)n1)c1cccc(N2CC(O)C2)n1", "Recorded Number": 5.37}
{"Compound": "Cc1cccc(C)c1-c1cc(C(F)(F)F)cc(NS(=O)(=O)c2cccc(N3CCNCC3)n2)n1 [Example 133, Hydrochloride]", "Recorded Number": 5.69}
{"Compound": "Cc1ccc(F)cc1-c1nc(NS(=O)(=O)c2cccc(N3CCC(C)(C(=O)O)CC3)n2)ccc1Cl", "Recorded Number": 5.87}

Consider now this further compound.
Q) For the compound shown here, Nc1cccc(S(=O)(=O)Nc2ccc(Cl)c(-c3ccccc3C(F)(F)F)n2)n1 , give the reported pEC50.
A) 5.77

* * *

The entries below come with measured Emax values attached.
- Experimental Target: horseradish peroxidase (HRP) tagged delF508-CFTR (Homo sapiens, UniProt P13569, DEL508-508)
- Construct: expressed in transfected cells
- Test Method Notes: Measurement of delF508-CFTR-HRP surface expression in CFBE41o- cells;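 for DelF508-CFTR-HRP Amax %: percent efficacy relative to reference corrector lumacaftor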
- Type: cell-based
- Run Conditions: delF508-CFTR-HRP surface expression, CFBE41o- cells; read-out: DelF508-CFTR-HRP Amax %
Where a name gives a salt, the structure may show the parent alone.
Value expressed in %; do not type the unit.

{"Molecule": "Cc1c(F)cccc1-c1nc(NS(=O)(=O)c2cccc(N3CCNCC3)n2)ccc1C(F)(F)F [Example 151, Hydrochloride]", "Quantity Kind": "Emax", "Recorded Number": 187}

Q) Entry under review: Cc1ccccc1-c1nc(NS(=O)(=O)c2cccc(N[C@@H]3COCC[C@@H]3O)n2)ccc1C(F)(F)F (single isomer, unassigned) . Reported Emax?
A) 680

Q) Okay, and Cc1cccc(C)c1-c1nc(NS(=O)(=O)c2cccc(O[C@@H]3CO[C@H](CO)C3)n2)ccc1Cl ?
A) 495

Q) Cc1ccccc1-c1nc(NS(=O)(=O)c2cccc(N3CCN(CCO)CC3)n2)ccc1C(F)(F)F [Example 182, Hydrochloride] , same question.
A) 485
